FYI, the data here is from patent US20230312643A1.

Kindly state viability at 24 h, 50 µg/mL for each of the entries shown.
Assay: HaCaT cytotoxicity test (MTS cell viability)
Assay type: cell-based
Conditions: human, HaCaT cells (skin epidermal cells), 50 μg/ml
One number for each entry, in %.

// below: answered molecules
NC(=O)C[C@H](NC(=O)CNC(=O)[C@@H]1CCCN1)C(=O)O [PGN, Pro-Gly-Asn, reference compound]: 125
CCCCCCCCCCCCCCCC(=O)N1CCC[C@H]1C(=O)NCC(=O)N[C@@H](CC(N)=O)C(=O)O [Pal-PGN]: 113
CN1CCC[C@H]1C(=O)NCC(=O)N[C@@H](CC(N)=O)C(=O)O [Me-PGN]: 122

Next item in the queue.
Report viability at 24 h, 50 µg/mL for CCCOC(=O)[C@H](CC(N)=O)NC(=O)CNC(=O)[C@@H]1CCCN1 [PGN-OPr, PGN(Pro-Gly-Asn)-OPr]
130

----------
Consider the following molecules; for each one, report its inhibition at 20 µg/mL.
Target: elastase (Sus scrofa, UniProt P00772)
Construct: purchased Invitrogen
Sequence (P00772 27-266): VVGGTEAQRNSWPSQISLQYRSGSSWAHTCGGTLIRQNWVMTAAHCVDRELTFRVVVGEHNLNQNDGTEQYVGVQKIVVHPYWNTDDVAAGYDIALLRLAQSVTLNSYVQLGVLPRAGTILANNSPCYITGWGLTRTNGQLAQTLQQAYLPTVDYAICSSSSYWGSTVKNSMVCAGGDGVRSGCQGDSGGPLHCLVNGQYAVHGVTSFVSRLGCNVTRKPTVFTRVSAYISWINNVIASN
Assay: Elastase inhibitory activity (EnzChek Elastase Assay Kit, DQ elastin)
Type: biochemical
Conditions: 0.02 mg/ml
One number for each entry, in %.

// for each molecule in input: emit inhibition at 20 µg/mL
1. CCCCCCCCCCCCCCCC(=O)N1CCC[C@H]1C(=O)NCC(=O)N[C@@H](CC(N)=O)C(=O)O [Pal-PGN]
2. CCCOC(=O)[C@H](CC(N)=O)NC(=O)CNC(=O)[C@@H]1CCCN1 [PGN-OPr, PGN(Pro-Gly-Asn)-OPr]
3. NC(=O)C[C@H](NC(=O)CNC(=O)[C@@H]1CCCN1)C(=O)O [PGN, Pro-Gly-Asn, reference compound]
4. CN1CCC[C@H]1C(=O)NCC(=O)N[C@@H](CC(N)=O)C(=O)O [Me-PGN]

1: 0.3; 2: 17.3; 3: 1.8; 4: 5.2

----------
Can you tell me inhibition at 40 µg/mL for the items I'm about to list?
Target: elastase (Sus scrofa, UniProt P00772)
Construct: purchased Invitrogen
Test: Elastase inhibitory activity (EnzChek Elastase Assay Kit, DQ elastin)
Type: biochemical
Details: 0.04 mg/ml
Answer shape: numeric part, then the unit.

Some entries whose results are on file:
CN1CCC[C@H]1C(=O)NCC(=O)N[C@@H](CC(N)=O)C(=O)O: 6.9%
CCCCCCCCCCCCCCCC(=O)N1CCC[C@H]1C(=O)NCC(=O)N[C@@H](CC(N)=O)C(=O)O: 1.2%
NC(=O)C[C@H](NC(=O)CNC(=O)[C@@H]1CCCN1)C(=O)O [PGN, Pro-Gly-Asn, reference compound]: 2.8%

Moving on to another compound below.
For elastase (Sus scrofa, UniProt P00772), give the measured inhibition at 40 µg/mL of the entry CCCOC(=O)[C@H](CC(N)=O)NC(=O)CNC(=O)[C@@H]1CCCN1
27.5%

----------
Biological target: elastase (Sus scrofa)
Construct: purchased Invitrogen
Test: Elastase inhibitory activity (EnzChek Elastase Assay Kit, DQ elastin)
Assay type: biochemical
Conditions: 0.1 mg/ml
VALUE KIND: inhibition at 100 µg/mL

// solved cases for inhibition at 100 µg/mL follow
CN1CCC[C@H]1C(=O)NCC(=O)N[C@@H](CC(N)=O)C(=O)O [Me-PGN]: 11.2%
CCCCCCCCCCCCCCCC(=O)N1CCC[C@H]1C(=O)NCC(=O)N[C@@H](CC(N)=O)C(=O)O [Pal-PGN]: 5.2%
CCCOC(=O)[C@H](CC(N)=O)NC(=O)CNC(=O)[C@@H]1CCCN1 [PGN-OPr, PGN(Pro-Gly-Asn)-OPr]: 77.6%

Next molecule, please.
Retrieve inhibition at 100 µg/mL measured for NC(=O)C[C@H](NC(=O)CNC(=O)[C@@H]1CCCN1)C(=O)O [PGN, Pro-Gly-Asn, reference compound] and print it.
7.5%
